- Assayed target: HLA-A*26:01
- Test protocol: IEDB peptide-MHC binding, purified MHC/direct/fluorescence; filed as Kd, often an IC50 or EC50 that approximates it; bounds were set here for any values at or beyond the usual limits of such assays
- Reported conditions: source organism: Vibrio vulnificus
Result type: Kd

Task item: Look up Kd: `IQTHCEVGY`
Reply: ≥ 20 µM

* * *

- Assayed target: HLA-A*26:02
- Test protocol: IEDB peptide-MHC binding, purified MHC/competitive/fluorescence; filed as Kd, often an IC50 or EC50 that approximates it; bounds were set here for any values at or beyond the usual limits of such assays
- Reported conditions: source organism: Human immunodeficiency virus 1
pKd: −log10 of the molar value.
Result type: pKd

Task item: pKd for `KSLFNTVATLY` ?
Reply: ≤ 4.70

* * *

- Assayed target: HLA-B*46:01
- Test protocol: IEDB peptide-MHC binding, purified MHC/competitive/fluorescence; filed as Kd, often an IC50 or EC50 that approximates it; bounds were set here for any values at or beyond the usual limits of such assays
- Reported conditions: source organism: Homo sapiens
Result type: pKd
Quick note: pKd values are minus log10 of concentrations in mol/L.

Task item: Looking for the measured pKd of `FAFVTDNTY` , can you help?
Reply: 7.88

* * *

- Assayed target: HLA-A*03:01
- Test protocol: IEDB peptide-MHC binding, purified MHC/competitive/fluorescence; bounds were set here for any values at or beyond the usual limits of such assays
- Reported conditions: source organism: Vaccinia virus
pIC50: −log10 of the molar value.
Result type: pIC50

Task item: // query pIC50 value for entry `GKVFAPKQK`
Reply: ≤ 3.81

* * *

- Assayed target: HLA-B*48:01
- Test protocol: IEDB peptide-MHC binding, purified MHC/direct/fluorescence; filed as Kd, often an IC50 or EC50 that approximates it; bounds were set here for any values at or beyond the usual limits of such assays
- Reported conditions: source organism: Camelpox virus M-96
Result type: Kd

{"columns": ["Residues", "Assayed target", "Kd"],
 "data": [
  ["FVFEATKLY", "HLA-B*48:01", "≥ 20 µM"],
  ["YERGNIIIF", "HLA-B*48:01", "≥ 20 µM"]
]}

Shifting focus to the sequence that follows.
Task item: Using the record for `NRLKPRDFK` , report its Kd.
Reply: ≥ 20 µM

* * *

- Assayed target: HLA-A*30:02
- Test protocol: IEDB peptide-MHC binding, purified MHC/competitive/radioactivity; filed as Kd, often an IC50 or EC50 that approximates it; bounds were set here for any values at or beyond the usual limits of such assays
- Reported conditions: source organism: Dengue virus 2 Jamaica/1409/1983
Result type: Kd (nM)
The figure you give is taken to be in nM; do not add the unit.

{"columns": ["Residues", "Kd, nM"],
 "data": [
  ["VLVGVVTLY", 58.3]
]}

Task item: What Kd appears in the records for this sequence with HLA-A*30:02? `HTAEAGGRAY`
Reply: 25.1

Task item: Same thing, different sequence: `ALHQVFGAIY`
Reply: 71.8

* * *

- Assayed target: HLA-A*11:01
- Test protocol: IEDB peptide-MHC binding, purified MHC/competitive/radioactivity; filed as Kd, often an IC50 or EC50 that approximates it; bounds were set here for any values at or beyond the usual limits of such assays
- Reported conditions: source organism: Lymphocytic choriomeningitis virus (strain Armstrong)
Result type: Kd

Task item: Quick one: Kd of `SCQGSDDIR` ?
Reply: ≥ 77.9 µM

* * *

- Assayed target: HLA-B*57:01
- Test protocol: IEDB peptide-MHC binding, purified MHC/direct/fluorescence; filed as Kd, often an IC50 or EC50 that approximates it; bounds were set here for any values at or beyond the usual limits of such assays
- Reported conditions: source organism: H9N2 subtype Influenza A virus (A/swine/Korea/S83/2004(H9N2))
Result type: Kd

Task item: // query Kd value for entry `FQKDAKVLF`
Reply: ≥ 20 µM

* * *

- Assayed target: HLA-B*57:01
- Test protocol: IEDB peptide-MHC binding, purified MHC/competitive/radioactivity; filed as Kd, often an IC50 or EC50 that approximates it; bounds were set here for any values at or beyond the usual limits of such assays
- Reported conditions: source organism: Dengue virus 1 Singapore/S275/1990
Result type: Kd (µM)
Form entry: value (µM) — number only.

Task item: Value lookup for Kd; key = `KTSVGVNMCT`
Reply: 8.16

* * *

- Assayed target: HLA-B*51:01
- Test protocol: IEDB peptide-MHC binding, purified MHC/competitive/fluorescence; filed as Kd, often an IC50 or EC50 that approximates it; bounds were set here for any values at or beyond the usual limits of such assays
- Reported conditions: source organism: Vibrio parahaemolyticus AQ3810
pKd: −log10 of the molar value.
Result type: pKd

Task item: Fill in the blank: the reported pKd of `HFIYHKREK` is ____.
Reply: ≤ 4.70

* * *

- Assayed target: HLA-A*69:01
- Test protocol: IEDB peptide-MHC binding, purified MHC/direct/fluorescence; filed as Kd, often an IC50 or EC50 that approximates it; bounds were set here for any values at or beyond the usual limits of such assays
- Reported conditions: source organism: Pseudomonas aeruginosa UCBPP-PA14
pKd: −log10 of the molar value.
Result type: pKd

Task item: Which pKd reading was recorded for the sequence `YTFCRLNVK` ?
Reply: ≤ 4.70

* * *

- Assayed target: HLA-A*02:01
- Test protocol: IEDB peptide-MHC binding, purified MHC/competitive/fluorescence; filed as Kd, often an IC50 or EC50 that approximates it; bounds were set here for any values at or beyond the usual limits of such assays
- Reported conditions: source organism: Zaire ebolavirus
pKd: −log10 of the molar value.
// pKd lookup, one value per entry

Below, 2 sequences whose answers are already recorded.
{"columns": ["Residues", "Result type", "Result"],
 "data": [
  ["GIVSSMHYK", "pKd", "≤ 4.70"],
  ["DRLASTVIY", "pKd", "≤ 4.70"]
]}

Task item: Requested field: pKd. Item: `AENCYNLEI`
Reply: ≤ 4.70

* * *

- Assayed target: HLA-A*02:01
- Test protocol: IEDB peptide-MHC binding, purified MHC/direct/fluorescence; filed as Kd, often an IC50 or EC50 that approximates it; bounds were set here for any values at or beyond the usual limits of such assays
- Reported conditions: source organism: Mammarenavirus lassaense
pKd: −log10 of the molar value.
Result type: pKd

Task item: Dear colleague, I am looking for the recorded pKd of the following sequence: `FVRSSPANF`
Reply: ≤ 4.70

* * *

- Assayed target: HLA-A*24:03
- Test protocol: IEDB peptide-MHC binding, purified MHC/direct/fluorescence; filed as Kd, often an IC50 or EC50 that approximates it; bounds were set here for any values at or beyond the usual limits of such assays
- Reported conditions: source organism: Vibrio cholerae
Result type: pKd
# log scale: pKd equals minus log10 of the concentration in mol/L

Task item: What value of measured pKd is listed for `RYQAQQVEW` ?
Reply: 8.80

* * *

- Assayed target: HLA-A*02:16
- Test protocol: IEDB peptide-MHC binding, purified MHC/competitive/fluorescence; filed as Kd, often an IC50 or EC50 that approximates it; bounds were set here for any values at or beyond the usual limits of such assays
- Reported conditions: source organism: Vibrio parahaemolyticus AQ3810
Result type: Kd

Task item: Would you kindly share the measured Kd for `HFIYHKREK` ?
Reply: ≥ 20 µM

* * *

- Assayed target: HLA-A*30:02
- Test protocol: IEDB peptide-MHC binding, purified MHC/competitive/radioactivity; filed as Kd, often an IC50 or EC50 that approximates it; bounds were set here for any values at or beyond the usual limits of such assays
- Reported conditions: source organism: Dengue virus 4 Philippines/H241/1956
Result type: Kd

// below: answered sequences
{"columns": ["Residues", "Kd"],
 "data": [
  ["DTSEVHWNY", "3860 nM"],
  ["LVQIENLEY", "1110 nM"]
]}

Note: attention shifts to another entry.
Task item: Fill in the blank: the reported Kd of `KLHSGVDVFY` is ____.
Reply: 12.1 nM

* * *

Measured Kd accompanies every entry in the list below.
- Assayed target: HLA-A*33:01
- Test protocol: IEDB peptide-MHC binding, purified MHC/competitive/radioactivity; filed as Kd, often an IC50 or EC50 that approximates it; bounds were set here for any values at or beyond the usual limits of such assays
- Reported conditions: source organism: SARS coronavirus Tor2
Unit µM implied. Number only.

{"columns": ["Residues", "Result type", "Number"],
 "data": [
  ["TLAVPYNMR", "Kd", 0.126]
]}

Task item: # input sequence: `QSLCFLLTQK` ; wanted: its Kd
Reply: 1.47

Task item: Repeat with `TTGIGYQPYR`
Reply: 1.74

Task item: Same thing, different sequence: `QQLRVESSSK`
Reply: 1.26

Task item: Another sequence to look at: `TLDESFLGR`
Reply: 1.12

Sourced from the Immune Epitope Database (IEDB)
